Data origin, for the record: the MegaScale stability set (Tsuboyama et al. 2023)

B1: 2M8U (parent)
chain: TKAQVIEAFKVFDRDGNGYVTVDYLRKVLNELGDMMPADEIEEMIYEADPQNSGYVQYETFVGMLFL

Variants of: B1
Test: folding stability dG (cDNA display proteolysis); higher = more stable
Conditions: PBS, room temperature
I'd appreciate it if you could supply folding stability dG values for the items below.
Answers are plain numbers, in kcal/mol.

L32Q | 2.62
K27L | 3.72
D23I | 3.63
E42L | 3.16
Y24K | 3.82

Batch request: folding stability dG per item, same order as input.
1. G16H
2. Q51S
3. Y46T
4. L65H

Solution:
1: 2.95; 2: 3.49; 3: 3.62; 4: 2.65

Batch request: folding stability dG per item, same order as input.
1. Q51I
2. V20L
3. E47Q
4. D49G
5. P37W
6. I41N
7. L25S
8. D15C

Solution:
1. 3.31
2. 2.9
3. 3.96
4. 2.36
5. 3.79
6. 2.17
7. 1.72
8. 2.9

Batch request: folding stability dG per item, same order as input.
1. M36A
2. D15F
3. A48K
4. M35W
5. L25H
6. E43V

Solution:
3.8
2.79
2.63
3.6
1.16
3.78

Batch request: folding stability dG per item, same order as input.
1. L25T
2. V56Q
3. E40V
4. E42S
5. V56N
6. N30D

Solution:
1: 2.65; 2: 1.96; 3: 3.74; 4: 3.29; 5: 1.99; 6: 3.72

Exercise: // returns reported folding stability dG for input D13A
Solution: 1.97
